Counter-ions that a name gives are not always drawn.
measured_metric: melting point

Solved cases (2 shown):
Cc1c(F)cccc1Cc1c(-c2ccccc2)c2ccccn2c1C(=O)N1CCN[C@@H](CC(=O)NCC2CCOCC2)C1 (as salt: hydrochloride); 147 °C
Cc1c(F)cccc1Cc1c(-c2ccccc2)c2ccccn2c1C(=O)N1CCN[C@@H](CO)C1 (as salt: hydrochloride); 180 to 181 °C

Would you kindly look at the next entry?
// melting point lookup, compound = Cc1c(F)cccc1Cc1c(C2CCCCC2)c2ccccn2c1C(=O)N1CCNCC1 (as salt: hydrochloride) , result: 317 to 318 °C

* * *

target: Recombinant human renin (Homo sapiens, UniProt P00797); assay: Inhibition of renin (fluorogenic peptide substrate); conditions: recombinant human renin 5 nM, fluorogenic peptide substrate 10 μM, 2 h at room temperature, Tris buffer pH 8; compounds tested as the obtained salt
Sequence (P00797 67-406): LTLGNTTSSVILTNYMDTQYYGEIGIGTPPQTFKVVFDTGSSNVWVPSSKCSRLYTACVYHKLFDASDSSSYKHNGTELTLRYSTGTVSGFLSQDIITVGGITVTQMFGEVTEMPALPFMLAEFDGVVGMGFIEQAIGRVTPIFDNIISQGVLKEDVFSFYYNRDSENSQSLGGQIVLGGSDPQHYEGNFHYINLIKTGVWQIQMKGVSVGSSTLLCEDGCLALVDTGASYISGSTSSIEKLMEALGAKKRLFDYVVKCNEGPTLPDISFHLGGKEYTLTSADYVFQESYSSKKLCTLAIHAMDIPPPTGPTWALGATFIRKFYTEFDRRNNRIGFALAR
measured_metric: pIC50
Numbers only, as −log10 of the molar value.

Cc1c(F)cccc1Cc1c(-c2ccccc2)c2cc(C(=O)N3CCCCC3)cnn2c1C(=O)N1CCN[C@@H](CC(=O)NCCO)C1 [Example 39]; 8.13

// batch mode: one pIC50 value per listed entry
1. COc1ccn2c(C(=O)N3CCNCC3)c(Cc3cccc(F)c3C)c(-c3ccccc3)c2c1 [Example 35]
2. Cc1c(F)cccc1Cc1c(-c2cccc(F)c2)c2ccccn2c1C(=O)N1CCNCC1 [Example 20]
3. Cc1c(F)cccc1Cc1c(C(=O)N2CCNCC2)c2ccccn2c1-c1ccccc1 [Example 11]

1. 7.55
2. 8.47
3. 7.64

// pIC50 lookup, molecule = CNC(=O)CC[C@H]1CN(C(=O)c2c(Cc3cccc(F)c3C)c(-c3ccccc3)c3ccccn23)CCN1 [Example 26] , result: 6.64

* * *

What melting point was measured for each of the following?
Counter-ions that a name gives are not always drawn.

Solved cases (6 shown):
Cc1c(F)cccc1Cc1c(-c2ccccc2)c2ccccn2c1C(=O)N1CCN[C@@H](CC(=O)NCCS(C)(=O)=O)C1 (as salt: hydrochloride) [Example 31]; 166 to 168 °C
Cc1c(F)cccc1Cc1c(-c2ccccc2)c2cccnn2c1C(=O)N1CCNCC1 (as salt: hydrochloride) [Example 9]; 140 to 142 °C
CCNC(=O)c1cnn2c(C(=O)N3CCN[C@@H](CC(=O)NCCOC)C3)c(Cc3cccc(F)c3C)c(-c3ccccc3)c2c1 (as salt: hydrochloride) [Example 42]; 151 to 153 °C
COCCN(C)C(=O)C[C@H]1CN(C(=O)c2c(Cc3cccc(F)c3C)c(-c3ccccc3)c3cc(C(=O)N(C)C)cnn23)CCN1 (as salt: hydrochloride) [Example 46]; 130 to 132 °C
Cc1cccc(C)c1Cc1c(-c2ccccc2)c2ccccn2c1C(=O)N1CCN[C@H](C)C1 (as salt: hydrochloride) [Example 17]; 302 °C
CNC(=O)c1ccn2c(C(=O)N3CCNCC3)c(Cc3cccc(F)c3C)c(-c3ccccc3)c2c1 (as salt: hydrochloride) [Example 4]; 205 °C

// batch mode: one melting point value per listed entry
1. CNC(=O)CC[C@H]1CN(C(=O)c2c(Cc3cccc(F)c3C)c(-c3ccccc3)c3ccccn23)CCN1 (as salt: hydrochloride) [Example 26]
2. CNC(=O)c1cnn2c(C(=O)N3CCNCC3)c(Cc3cccc(F)c3C)c(-c3ccccc3)c2c1 (as salt: hydrochloride) [Example 8]

1. 127 to 129 °C
2. 208 to 210 °C

// batch mode: one melting point value per listed entry
1. Cc1c(F)cccc1Cc1c(-c2ccccc2)c2ccccn2c1C(=O)N1CCN[C@@H](CC(=O)NCc2cccnc2)C1 (as salt: hydrochloride) [Example 32]
2. Cc1c(F)cccc1Cc1c(-c2ccccc2)c2ccccn2c1C(=O)N1CCN[C@@H](CCO)C1 (as salt: hydrochloride) [Example 5]
3. Cc1c(F)cccc1Cc1c(-c2ccccc2)c2ccccn2c1C(=O)N1CCN[C@@H](CC(=O)NCC(C)(C)C(N)=O)C1 (as salt: hydrochloride) [Example 7]
4. COc1ccn2c(C(=O)N3CCNCC3)c(Cc3cccc(F)c3C)c(-c3ccccc3)c2c1 (as salt: hydrochloride) [Example 35]

1. 181 to 182 °C
2. 202 °C
3. 174 to 176 °C
4. 124 to 125 °C

Source listed as patent US8415336B2.
